Parameter: Kd. Scope: all listed entries.
Target: IL-23 (human, p19/p40 heterodimer) (Homo sapiens, UniProt Q9NPF7;P29460 SEQ:20-189,SEQ:23-328)
Sequence (Q9NPF7 20-189, chain 1 of 2): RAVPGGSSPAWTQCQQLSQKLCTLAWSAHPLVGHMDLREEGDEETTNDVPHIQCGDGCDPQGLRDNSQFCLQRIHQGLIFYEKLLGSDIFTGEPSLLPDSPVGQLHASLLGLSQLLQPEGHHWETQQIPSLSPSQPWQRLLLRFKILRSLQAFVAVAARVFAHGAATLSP
Sequence (P29460 23-328, chain 2 of 2): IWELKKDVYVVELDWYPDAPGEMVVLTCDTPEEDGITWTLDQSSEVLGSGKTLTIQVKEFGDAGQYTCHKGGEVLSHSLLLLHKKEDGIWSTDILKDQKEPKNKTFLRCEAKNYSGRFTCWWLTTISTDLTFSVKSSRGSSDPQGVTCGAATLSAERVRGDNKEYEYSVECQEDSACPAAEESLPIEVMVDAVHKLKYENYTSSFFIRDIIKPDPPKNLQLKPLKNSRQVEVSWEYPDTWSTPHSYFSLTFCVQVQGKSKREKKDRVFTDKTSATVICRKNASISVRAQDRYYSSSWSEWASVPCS
Experiment: filter; 1X PBS, 0.1 mg/mL BSA, 30 min RT
Conditions: tags: R&D Systems, carrier free; label: 32P
measured.attribute: Kd

binder | measured.attribute | result
ARC1633 (ssRNA, 2'-F all C and U (rRfY)) RNA: GGAGCGCACUCAGCCACAGCUCGGUGGCUUAAUAUCUAUGUGAACGUGCGCAACAGCUUUCGACCUCUCUGCUAGC | Kd | 79 nM
ARC1629 (ssRNA, 2'-F all C and U (rRfY)) RNA: GGAGCGCACUCAGCCACCGUAAUUCACAAGGUCCCUGAGUGCAGGGUUGUAUGUUUGUUUCGACCUCUCUGCUAGC | Kd | 31 nM
ARC1634 (ssRNA, 2'-F all C and U (rRfY)) RNA: GGAGCGCACUCAGCCACCUUGGGCUUAAUACCUAUCGGAUGUGCGCCUAGCACGGAAUUUCGACCUCUCUGCUAGC | Kd | 39 nM
ARC1630 (ssRNA, 2'-F all C and U (rRfY)) RNA: GGAGCGCACUCAGCCACUCUACUCGAUAUAGUUUAUCGAGCCGGUGGUAGAUUAUGAUUUCGACCUCUCUGCUAGC | Kd | 65 nM
ARC1628 (ssRNA, 2'-F all C and U (rRfY)) RNA: GGAGCGCACUCAGCCACAGGUGGCUUAAUACUGUAAAGACGUGCGCGCAGAGGGAUUUUCGACCUCUCUGCUAGC | Kd | 52 nM
ARC1632 (ssRNA, 2'-F all C and U (rRfY)) RNA: GGAGCGCACUCAGCCACCGGCUUAAUAUCCAAUAGGAACGUUCGCUCUGAGCAGGCGUUUCGACCUCUCUGCUAGC | Kd | 91 nM
ARC1631 (ssRNA, 2'-F all C and U (rRfY)) RNA: GGAGCGCACUCAGCCACGCCUACAAUUCACUGUGAUAUAUCGAAUUAUAGCCCUGGUUUCGACCUCUCUGCUAGC | Kd | 39 nM

All values here come from patent US20060193821.
